# System: NCI-H2347
# MEASUREMENT NOTES: relative viability (nuclei count vs DMSO), 5 days (fraction); higher = more cells survive
# STUDY CONDITIONS: first compound 2.53 µM
relative viability values for the compounds below.
Please give the numeric answer without any surrounding text.

Oc1nc(-c2ccc(C(F)(F)F)cc2)nc2c1CSCC2 [XAV939] + CC(C)C[C@H](NC(=O)[C@H](Cc1ccccc1)NC(=O)c1cnccn1)B(O)O [Bortezomib] (partner 0.002 µM); 0.837
C=C1C(=O)O[C@@H](CCCCCCCC)[C@@H]1C(=O)O [C-75] + CC(=O)c1c(C)c2cnc(Nc3ccc(N4CCNCC4)cn3)nc2n(C2CCCC2)c1=O [Palbociclib] (partner 0.5 µM); 0.389

Which relative viability is listed for C=C1C(=O)O[C@@H](CCCCCCCC)[C@@H]1C(=O)O [C-75] + CC1(C)CCC(c2ccc(Cl)cc2)=C(CN2CCN(c3ccc(C(=O)NS(=O)(=O)c4ccc(N[C@H](CCN5CCOCC5)CSc5ccccc5)c(S(=O)(=O)C(F)(F)F)c4)cc3)CC2)C1 [Navitoclax] (partner 0.5 µM) ? 0.758

Given the entry C=C1C(=O)O[C@@H](CCCCCCCC)[C@@H]1C(=O)O [C-75] + O=C(c1cc(Cc2n[nH]c(=O)c3ccccc23)ccc1F)N1CCN(C(=O)C2CC2)CC1 [Olaparib] (partner 8 µM) , report its measured relative viability. 0.539

For C=C1C(=O)O[C@@H](CCCCCCCC)[C@@H]1C(=O)O [C-75] + CS(=O)(=O)CCNCc1ccc(-c2ccc3ncnc(Nc4ccc(OCc5cccc(F)c5)c(Cl)c4)c3c2)o1 [Lapatinib] (partner 2 µM) , what is its reported relative viability? 0.828

Recorded relative viability for Oc1nc(-c2ccc(C(F)(F)F)cc2)nc2c1CSCC2 [XAV939] + N=C(N)NC(=N)NCCc1ccccc1 [Phenformin] (partner 250 µM) , please? 0.338

Which relative viability reading was recorded for the compound Oc1nc(-c2ccc(C(F)(F)F)cc2)nc2c1CSCC2 [XAV939] + C[C@]1(O)C[C@@H](c2nc(-c3ccc4ccc(-c5ccccc5)nc4c3)c3c(N)nccn32)C1 [Linsitinib] (partner 1 µM) ? 1

What value of relative viability has been recorded for this entry: C=C1C(=O)O[C@@H](CCCCCCCC)[C@@H]1C(=O)O [C-75] + Nc1ncn([C@H]2C[C@H](O)[C@@H](CO)O2)c(=O)n1 [Decitabine] (partner 2 µM) 0.572
